Target: T1, Recombinant human PSGL-1(ECD)-hFc1 (R&D Systems, Cat. 3345-PS) (human, UniProt Q14242 42-305)
T1 construct: Bought; Gln42-Val295 counted on AAC50061; also called PSGL-1-Fc; PSGL-1-hFc1 chimera; not shown: human IgG1 Fc, Pro100-Lys330
T1 sequence: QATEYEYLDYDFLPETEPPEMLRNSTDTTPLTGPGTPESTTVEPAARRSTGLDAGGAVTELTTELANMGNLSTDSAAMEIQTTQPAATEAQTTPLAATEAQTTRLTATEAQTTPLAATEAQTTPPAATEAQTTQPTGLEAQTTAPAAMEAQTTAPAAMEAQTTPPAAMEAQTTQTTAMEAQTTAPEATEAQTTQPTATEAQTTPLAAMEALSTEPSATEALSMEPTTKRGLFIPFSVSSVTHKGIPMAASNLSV
Assay: blocking ELISA vs L-selectin-Fc
VALUE TYPE: IC50 (nM)
Return type: number; implicit unit nM.

Please review the following examples before continuing.
03D07 (antibody, IgG4, V domains shown) VH: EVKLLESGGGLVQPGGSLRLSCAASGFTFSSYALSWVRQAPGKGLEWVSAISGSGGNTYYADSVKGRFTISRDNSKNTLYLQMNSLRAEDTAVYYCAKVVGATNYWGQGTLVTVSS VL: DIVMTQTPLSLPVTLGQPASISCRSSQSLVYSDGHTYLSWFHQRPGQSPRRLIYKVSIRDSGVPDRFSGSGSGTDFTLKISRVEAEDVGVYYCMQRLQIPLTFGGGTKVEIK ... 6
9F9 (antibody, V domains shown, Control anti-PSGL-1 mAb, recombinant; only variable domains given; also called 9F6) VH: EVQLVETGGGLVQPKGSLKLSCAASGFTFNTNAMNWVRQAPGKGLEWVARIRSKSNNYATYYADSVKDRFTISRDDTQSMIYLQMNNLKTEDTGMYYCVRGGSYWYFDVWGAGTTVTVSS VL: DVLMTQTPLSLPVSLGDQASISCRSSQSIVNSNGNTYLEWYLQKPGQSPKLLIYKVSNRFSGVPDRFSGSGSGTDFTLKISRVEAEDLGVYYCFQGSHVPWTFGGGTKLEIK ... 10

Here is the next item to consider.
The binder 20I15 (antibody, V domains shown, From mouse immunisation; only variable domains given; also called 20115) VH: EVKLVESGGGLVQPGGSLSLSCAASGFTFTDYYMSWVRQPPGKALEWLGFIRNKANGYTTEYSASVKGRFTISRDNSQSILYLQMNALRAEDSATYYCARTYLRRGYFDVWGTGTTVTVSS VL: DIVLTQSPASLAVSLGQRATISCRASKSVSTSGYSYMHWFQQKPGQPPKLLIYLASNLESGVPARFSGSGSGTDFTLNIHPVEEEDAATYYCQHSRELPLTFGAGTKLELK showed IC50 equal to 20

Where do these numbers come from? They come from patent US20220396632A1.
